Target: recombinant human PAI-1 (Homo sapiens)
Construct: purchased Molecular Innovations, Inc
Sequence (P05121 24-402): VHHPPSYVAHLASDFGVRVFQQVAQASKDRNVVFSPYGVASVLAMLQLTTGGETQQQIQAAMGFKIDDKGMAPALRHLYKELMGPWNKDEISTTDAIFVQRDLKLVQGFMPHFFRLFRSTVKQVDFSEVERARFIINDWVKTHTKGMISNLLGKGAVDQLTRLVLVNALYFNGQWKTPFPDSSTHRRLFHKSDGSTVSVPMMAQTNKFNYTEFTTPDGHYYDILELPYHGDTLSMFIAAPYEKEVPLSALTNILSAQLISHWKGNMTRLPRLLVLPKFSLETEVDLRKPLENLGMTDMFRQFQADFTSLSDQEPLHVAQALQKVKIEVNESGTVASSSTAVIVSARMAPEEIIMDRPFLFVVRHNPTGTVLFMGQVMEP
Assay: Test Example 1: human PAI-1 inhibitory activity (tPA fluorogenic substrate, pH 7.5 Tris buffer)
Type: biochemical
Settings: Compound Concentration 5 μM; Tris buffer
Parameter: Inhibition Rate of PAI-1 Activity (%)
// note: answer is a bare numeric in %

Past entries and their recorded results:
>>> observed("CC(C)(C)c1ccc(COc2cc(CCC(=O)O)cc(Oc3ccc(OC(F)(F)F)cc3)c2)cc1")
37
>>> observed("Cc1ccc(-c2ccc(OC(F)(F)F)cc2)cc1N(Cc1ccc(C(C)(C)C)cc1)C(=O)C(=O)O")
16
>>> observed("COc1cc(-c2ccc(OC(F)(F)F)cc2)cc(/C=C/C(=O)O)c1OCc1ccc(C(C)(C)C)cc1")
28
>>> observed("CCC(CC)Oc1ccc(N(Cc2ccc(C(C)(C)C)cc2)C(=O)C(=O)O)c(-c2ccc(OC(F)(F)F)cc2)c1")
79
>>> observed("CCCCc1ccc(COc2ccc(-c3ccc(OC(F)(F)F)cc3)cc2CCC(=O)O)cc1")
29

[in] Please report the measured Inhibition Rate of PAI-1 Activity (%) for COc1ccc(-c2ccc(OCc3ccc(C(C)(C)C)cc3)c(/C=C/C(=O)O)c2)cc1
[out] 23

[in] Complete the entry with Inhibition Rate of PAI-1 Activity (%) for CC(C)(C)c1ccc(Oc2cc(-c3ccc(OC(F)(F)F)cc3)ccc2OC(F)(F)C(=O)O)cc1
[out] 59
